study system: Melanocortin receptor 4 (Homo sapiens)
Sequence (P32245 whole entry): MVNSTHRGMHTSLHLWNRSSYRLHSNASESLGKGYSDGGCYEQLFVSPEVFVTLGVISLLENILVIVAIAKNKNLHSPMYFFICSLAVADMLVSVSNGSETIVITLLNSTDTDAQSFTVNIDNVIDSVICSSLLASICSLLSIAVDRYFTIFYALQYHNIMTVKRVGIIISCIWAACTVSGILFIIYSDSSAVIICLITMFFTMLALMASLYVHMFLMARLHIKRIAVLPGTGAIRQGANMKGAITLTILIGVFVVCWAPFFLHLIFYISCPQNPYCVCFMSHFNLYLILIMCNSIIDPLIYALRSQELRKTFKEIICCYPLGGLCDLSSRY
protocol: biochemical
recorded metric: IC50 (nM)
Numbers only, in nM.

Batch lookup, IC50 per entry.
1. N=C(N)NCCC[C@@H]1NC(=O)[C@@H](Cc2ccc3ccccc3c2)NC(=O)[C@@H]2CCCN2C(=O)c2ccccc2C(=O)NCCCC[C@@H](C(N)=O)NC(=O)[C@H](Cc2c[nH]c3ccccc23)NC1=O
2. NC(=O)[C@@H]1CCCCNC(=O)CCCC(=O)N2CCC[C@H]2C(=O)N[C@H](Cc2ccc3ccccc3c2)C(=O)N[C@@H](CCCN=C(N)N)C(=O)N[C@@H](Cc2c[nH]c3ccccc23)C(=O)N1

[430, 330]

// provenance: ChEMBL document CHEMBL1140710
